Where a name gives a salt, the structure may show the parent alone.
For UniProt Q9NWZ3, measured IC50 is reported for the entries below.
Sequence (Q9NWZ3 whole entry): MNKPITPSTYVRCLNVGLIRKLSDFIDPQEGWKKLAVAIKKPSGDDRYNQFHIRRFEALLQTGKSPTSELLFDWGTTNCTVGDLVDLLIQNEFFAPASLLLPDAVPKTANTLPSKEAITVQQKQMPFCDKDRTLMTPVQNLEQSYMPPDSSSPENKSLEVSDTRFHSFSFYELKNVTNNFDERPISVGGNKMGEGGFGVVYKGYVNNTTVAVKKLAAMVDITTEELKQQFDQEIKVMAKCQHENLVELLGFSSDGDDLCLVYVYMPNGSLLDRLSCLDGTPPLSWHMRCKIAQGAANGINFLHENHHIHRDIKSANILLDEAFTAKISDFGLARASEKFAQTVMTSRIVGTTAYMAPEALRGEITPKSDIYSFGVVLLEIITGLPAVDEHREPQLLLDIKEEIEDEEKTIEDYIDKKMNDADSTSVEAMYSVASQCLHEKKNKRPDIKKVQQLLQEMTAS

molecule	IC50
CN(C)[C@H]1CC[C@H](Nc2ncnc3oc4c(c23)CCC4)CC1 [Compound I-10]	1 to 10 µM
CN(C)[C@H]1CC[C@H](Nc2ncnc3[nH]cc(C#N)c23)CC1 [Compound I-1]	0.1 to 1 µM
CN(C)[C@H]1CC[C@H](Nc2nc(N)nc3[nH]ccc23)CC1 [Compound I-8]	≥ 10 µM
CN(C)[C@H]1CC[C@H](Oc2ncnc3[nH]cc(F)c23)CC1 [Compound I-4]	1 to 10 µM
N[C@H]1CC[C@H](Nc2ncnc3oc4c(c23)CCC4)CC1 [Compound I-11]	≥ 10 µM
CN(C)[C@H]1CC[C@H](Nc2ncnc3occc23)CC1 [Compound I-12, formate]	≥ 10 µM
c1nc(O[C@H]2CC[C@H](N3CCOCC3)CC2)c2ccoc2n1 [Compound I-13]	≥ 10 µM
CN(C)[C@H]1CC[C@H](Oc2ncnc3occc23)CC1 [Compound I-14, formate]	≥ 10 µM
